- TEST_DETAILS: Antiproliferative activity against human OSC19 cells assessed as cell growth inhibition
- Type: functional
What GI50 was measured for each of the following?
Give bare numbers, in µM.

Recorded results for 2 molecules are shown here.
MOLECULE	MEASUREMENT_KIND	ENDPOINT_UNIT	READOUT_NUMBER
Clc1ccc(C2=Nn3c(nnc3-c3cc(-c4ccccc4)[nH]n3)SC2)cc1	GI50	µM	27
Clc1ccc(C2=Nn3c(nnc3-c3[nH]nc4c3CCC4)SC2)cc1Cl	GI50	µM	14

Report GI50 for each item below.
1. CC1Sc2nnc(-c3cc(-c4ccccc4)n[nH]3)n2N=C1c1ccccc1 (stereo not given)
2. COc1ccc(C2=Nn3c(nnc3-c3[nH]nc4c3CCC4)SC2C)cc1 (stereo not given)
3. COc1ccc(C2=Nn3c(nnc3-c3cc(-c4ccc(Cl)cc4)n[nH]3)SC2C)cc1 (stereo in doubt; form 1)

[reply]
[31.3, 3.1, 14.9]
